Data origin, for the record: PubChem BioAssay AID602191

- System Name: Scavenger receptor class B member 1 (Mus musculus)
- Protocol Details: enhancers of DiI-HDL lipid transfer via SR-BI – cell-based, ldlA[mSR-BI] CHO, DiI fluorescence, cherry-pick, dose response (AID 602191);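 note: cell fluorescence from internalized DiI-labeled HDL after washing; 0% = median of DMSO wells and 100% = twice the DMSO signal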
- Measurement Context: ldlA[mSR-BI] CHO cells, 3 h, at 35 µM (top of the series)
Outcome Measure: activation (HDL uptake increase) (%)
# number only, unit % dropped from output

Query: What value of activation (HDL uptake increase) on Scavenger receptor class B member 1 (Mus musculus) does O=C1C2C(c3ccccc3)CC=CC2[C@H](c2ccc(C(F)(F)F)cc2)N1Cc1ccccc1 (some centres undefined) have?
Result: -16.7

Query: Request: activation (HDL uptake increase), test system Scavenger receptor class B member 1 (Mus musculus), entry CC(C)CCNC(=O)c1onc(CSc2ccncc2)c1C(=O)NCCC(C)C
Result: 3.64

Query: For Scavenger receptor class B member 1 (Mus musculus), provide activation (HDL uptake increase) of Cc1nn(CC(=O)OC(C)C(=O)Nc2ccccc2[N+](=O)[O-])c(C)c1[N+](=O)[O-] (centres undefined) please.
Result: -9.77

Query: Form field - read-out: activation (HDL uptake increase); system: Scavenger receptor class B member 1 (Mus musculus); submitted item: Cc1ccc(NC(=O)c2nc[nH]c2C(=O)NCCN(CCNC(=O)c2[nH]cnc2C(=O)Nc2ccc(C)cc2)CCNC(=O)c2[nH]cnc2C(=O)Nc2ccc(C)cc2)cc1
Result: 8.14
